protocolText: compound effects on differentiated 3T3-L1 adipocyte viability – cell-based, 3T3-L1 adipocytes, calcein-AM fluorescence, 48 h, basal, profiling panel (AID 1163); note: test concentration not given here
experimentalContext: 3T3-L1 adipocytes viability, higher = more signal
testReadout: z-score
Keep the answer to the number alone.

CC1=C2[C@@H](CCc3ccccc3)OB(O)C[C@@H]2[C@@H]2C(=O)N(C)C(=O)[C@@H]2C1 ... 0.417
Cn1cccc1C(O)C1C=CC2C(=O)N(c3ccccc3)C(=O)C2N1Nc1ccccc1 (centres undefined) ... -1.86
CC1CC/C=C\[C@H]2OC34C=CCN(C(C)C)C(=O)[C@H]3N(CCO)C(=O)[C@@H]4C2C(=O)O1 (some centres undefined) ... 0.668

Continue with the compound presented below.
The compound identified as `COC(=O)[C@@]1(Cc2ccc(OC)cc2)[C@H]2c3cc(C(=O)N(C)C)n(Cc4ccc(C)o4)c3C[C@H]2CN1C(=O)c1ccccc1` registered its z-score at -0.0339

---

protocolText: JC-1 mitochondrial potential readout, lung cancer cells – cell-based, A549, JC-1 fluorescence, basal, 24 h, 100 nL, profiling panel (AID 1138);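 note: A549 lung adenocarcinoma cells under basal conditions with no added stimulus; test concentration not given here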
experimentalContext: higher = more signal
testReadout: z-score
Response field accepts a number only; no unit should be typed.

# count of solved cases: 5
O=C1C[C@]2(c3ccc([N+](=O)[O-])cc3)C(=O)N(C3CC3)c3cc(CO)ccc3[C@H]2N1CC12CC3CC(CC(C3)C1)C2 ... -1.17
C[N+](C)(C)CCCC[C@@H]1NC(=O)[C@@H]2C[C@H](C(=O)NCCCCCCN)[C@H](c3cccc(OCCO)c3)N2C1=O ... 0.197
C=CCC(OC(C)=O)[C@@H]1[C@@H](N(Cc2cccc3ccccc23)C(=O)Cc2ccc(F)cc2)c2cc(OCCCO)ccc2N1C(=O)c1ccc2ccccc2c1 (stereo partly specified) ... 1.03
COC(=O)[C@@]1(Cc2ccc(F)cc2)[C@H]2c3cc(C(=O)N4CCCC4)n(Cc4ccc(C)c(F)c4F)c3C[C@H]2CN1C(=O)c1ccccc1 ... -0.494
O=C1OCCC=C[C@H]2OC34C=CCN(Cn5nnc6ccccc65)C(=O)[C@H]3N(CCCO)C(=O)[C@@H]4C12 (stereo partly specified) ... -0.9

Then this compound:
The reported value for `COCCOC(=O)N1C(=O)[C@@]2(c3cc(C#CCC(C(=O)OC)C(=O)OC)ccc31)[C@H](c1ccc(OCCO)cc1)N1[C@H](c3ccccc3)[C@H](c3ccccc3)OC(=O)[C@H]1[C@@H]2C(=O)N1CCc2cc(OC)c(OC)cc2C1` in terms of z-score is -0.942

---

System: PRMT1 (protein arginine N-methyltransferase 1)
protocolText: small molecules binding arginine methyltransferase PRMT1 – biochemical, small-molecule microarray, 635 nm fluorescence, primary screen (AID 1088);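 note: binding of Prmt1 protein to compounds spotted on small-molecule microarray slides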
experimentalContext: higher = more signal
testReadout: composite z-score
Answer as a number with no unit attached.

Past entries and their recorded results:
Cc1ccc(S[C@]2(C(=O)NCc3ccccc3)CC(=O)N(C3CCCCC3)[C@@H]2c2ccc(CO)cc2I)cc1 ... 1.15
Cc1ccc(N2C(=O)c3ccccc3[C@@H](C(=O)NCCCN(C)C)[C@@H]2c2ccc(CO)cc2)nc1 ... 0.0027
CN1C2C=C(CCCO)C(C3C(=O)N(C(N)=O)C(=O)C32)C1C1CC1 (stereo unspecified) ... -0.0255
CCOC(=O)C[C@H]1[C@H](OC(=O)c2ccc(C(=O)c3ccccc3)cc2)[C@@H](NC(=O)c2ccc3ccccc3n2)c2cc(OCCCO)ccc2N1C(=O)Cc1ccc(OC)cc1 ... 0.517
CS(=O)(=O)CCOC(=O)C1=CC(c2ccc(CO)cc2)=CC(C2CC2)N(Cc2sc3ccccc3c2Cl)C=C1C(=O)OCCS(C)(=O)=O (stereo unspecified) ... 1.46

The measured composite z-score associated with O=C1C2C=CC(C(O)c3ccco3)N(Nc3ccccc3F)C2C(=O)N1c1ccccc1 (stereo unspecified) reads -0.281

# composite z-score (compound: `COCCOC(=O)N1C(=O)[C@@]2(c3cc(C#CC4=CCCCC4)ccc31)[C@H](c1ccccc1OCCO)N1[C@H](c3ccccc3)[C@H](c3ccccc3)OC(=O)[C@H]1[C@@H]2C(=O)N1CCN(c2ncccn2)CC1` ) is 1.57

---

system: Neurogenic locus notch homolog protein 2 (Homo sapiens) (UniProt Q04721)
Sequence (Q04721 whole entry, looked up): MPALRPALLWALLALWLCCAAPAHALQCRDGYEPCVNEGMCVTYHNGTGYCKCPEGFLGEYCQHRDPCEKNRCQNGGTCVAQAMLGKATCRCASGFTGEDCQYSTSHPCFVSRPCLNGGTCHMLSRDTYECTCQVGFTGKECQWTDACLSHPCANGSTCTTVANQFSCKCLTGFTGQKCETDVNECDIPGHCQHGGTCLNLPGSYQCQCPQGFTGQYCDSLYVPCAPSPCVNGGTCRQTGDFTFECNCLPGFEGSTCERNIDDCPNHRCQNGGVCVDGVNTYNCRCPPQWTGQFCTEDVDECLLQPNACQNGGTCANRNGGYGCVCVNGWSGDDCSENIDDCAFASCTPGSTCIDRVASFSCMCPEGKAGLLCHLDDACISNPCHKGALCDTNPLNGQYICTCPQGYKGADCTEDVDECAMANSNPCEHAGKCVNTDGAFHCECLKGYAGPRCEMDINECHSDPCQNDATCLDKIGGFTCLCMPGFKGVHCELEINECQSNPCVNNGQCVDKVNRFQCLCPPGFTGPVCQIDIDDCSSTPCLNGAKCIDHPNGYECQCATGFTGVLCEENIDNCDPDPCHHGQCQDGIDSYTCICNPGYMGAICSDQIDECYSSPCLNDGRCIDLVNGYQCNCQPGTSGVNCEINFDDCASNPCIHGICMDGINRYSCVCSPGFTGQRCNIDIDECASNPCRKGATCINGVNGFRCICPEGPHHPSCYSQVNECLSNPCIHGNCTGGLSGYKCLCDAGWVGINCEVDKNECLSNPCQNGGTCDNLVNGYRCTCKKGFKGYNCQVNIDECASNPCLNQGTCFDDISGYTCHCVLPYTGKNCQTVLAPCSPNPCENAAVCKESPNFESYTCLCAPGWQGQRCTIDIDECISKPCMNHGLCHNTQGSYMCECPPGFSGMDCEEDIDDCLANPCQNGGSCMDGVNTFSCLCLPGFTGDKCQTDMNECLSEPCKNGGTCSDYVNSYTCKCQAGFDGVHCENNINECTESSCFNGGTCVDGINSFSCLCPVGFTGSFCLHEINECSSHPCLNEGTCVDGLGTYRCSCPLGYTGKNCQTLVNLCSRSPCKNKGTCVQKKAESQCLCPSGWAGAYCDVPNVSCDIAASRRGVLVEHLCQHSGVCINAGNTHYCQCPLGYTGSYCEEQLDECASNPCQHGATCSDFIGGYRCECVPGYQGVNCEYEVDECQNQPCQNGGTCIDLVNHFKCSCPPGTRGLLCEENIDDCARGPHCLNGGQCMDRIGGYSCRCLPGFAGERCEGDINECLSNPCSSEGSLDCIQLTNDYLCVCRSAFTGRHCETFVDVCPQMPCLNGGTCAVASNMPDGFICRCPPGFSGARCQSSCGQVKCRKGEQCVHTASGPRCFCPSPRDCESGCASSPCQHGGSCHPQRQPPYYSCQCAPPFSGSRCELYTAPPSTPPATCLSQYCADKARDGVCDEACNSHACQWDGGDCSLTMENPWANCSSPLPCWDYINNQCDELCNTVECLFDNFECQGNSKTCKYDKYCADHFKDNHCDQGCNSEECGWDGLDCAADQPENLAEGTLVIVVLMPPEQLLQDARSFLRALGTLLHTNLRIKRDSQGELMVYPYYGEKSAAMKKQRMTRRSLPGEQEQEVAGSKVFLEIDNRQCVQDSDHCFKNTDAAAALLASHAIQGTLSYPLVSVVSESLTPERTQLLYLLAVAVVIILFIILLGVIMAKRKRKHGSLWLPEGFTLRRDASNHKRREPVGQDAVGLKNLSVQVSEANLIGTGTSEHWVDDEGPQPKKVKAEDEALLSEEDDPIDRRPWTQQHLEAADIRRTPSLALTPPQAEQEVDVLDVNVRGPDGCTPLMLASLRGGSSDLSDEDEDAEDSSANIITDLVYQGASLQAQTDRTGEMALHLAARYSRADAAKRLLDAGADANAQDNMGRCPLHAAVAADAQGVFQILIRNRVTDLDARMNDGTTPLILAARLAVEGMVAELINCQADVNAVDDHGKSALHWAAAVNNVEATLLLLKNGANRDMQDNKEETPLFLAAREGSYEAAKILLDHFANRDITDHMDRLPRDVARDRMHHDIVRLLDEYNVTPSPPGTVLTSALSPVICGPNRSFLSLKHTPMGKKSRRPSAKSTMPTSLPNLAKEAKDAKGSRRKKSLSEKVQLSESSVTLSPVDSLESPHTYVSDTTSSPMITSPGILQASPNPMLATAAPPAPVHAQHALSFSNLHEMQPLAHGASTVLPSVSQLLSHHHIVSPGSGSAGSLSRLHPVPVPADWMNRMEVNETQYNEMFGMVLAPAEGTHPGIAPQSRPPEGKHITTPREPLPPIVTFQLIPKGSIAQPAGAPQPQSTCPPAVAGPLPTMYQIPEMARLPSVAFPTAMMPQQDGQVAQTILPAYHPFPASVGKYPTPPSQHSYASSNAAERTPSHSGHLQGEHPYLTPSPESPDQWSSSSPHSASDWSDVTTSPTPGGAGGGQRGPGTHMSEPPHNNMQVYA
protocolText: small molecules binding Notch2 protein – biochemical, small-molecule microarray, 635 nm fluorescence, stem cell growth factors, primary screen (AID 1073)
experimentalContext: higher = more signal
testReadout: composite z-score
Lab note: record just the number, no unit beside it.

C=C(/C(=C/C[C@H](OC(=O)c1ccncc1)c1ccc(CO)o1)c1cnc2ccccc2c1)C(C)C ... 1.44
CN(C)CCCCCCNC(=O)[C@@H]1C[C@@H]2C(=O)N3CCC[C@H]3C(=O)N2[C@@H]1c1cccc(OCCO)c1 ... 0.623
COc1ccc([Si](C)(C)[C@@H]2[C@@H](CCO)O[C@]3(C(=O)N(Cc4ccccc4)c4ccc(N5CCOC5=O)cc43)[C@H]2C)cc1 ... 0.545
COC(=O)[C@@]1(Cc2ccc(OC)cc2)[C@H]2c3cc(C(=O)N4CCCC4)n(CCO)c3C[C@H]2CN1C(=O)c1ccccc1 ... 1.55

response.value for COC(=O)C1=CC(CCCO)=CC(c2cccs2)N(C)C=C1C(=O)OC (centres undefined) (field: composite z-score) = -0.324

Value of composite z-score reported for the compound `COC(=O)C(CC#Cc1ccc2c(c1)[C@]1(C(=O)N2)[C@H](c2ccc(O)cc2)N2[C@H](c3ccccc3)[C@H](c3ccccc3)OC(=O)[C@H]2[C@@H]1C(=O)NC[C@H](O)c1ccccc1)C(=O)OC` is 0.791

Data point: `C=C[C@H](C)[C@H](OC(=O)Nc1ccc(SC)cc1)c1ccc(OCCO)cc1` ; composite z-score = -0.34

Kindly note the recorded composite z-score for `C=CCNC(=O)[C@@H]1[C@H]2C(=O)O[C@H](c3ccccc3)[C@H](c3ccccc3)N2[C@H](c2ccccc2OCCO)[C@@]12C(=O)Nc1ccc(C#CCCO)cc12` , which is 0.611

Recorded result, COc1cc(NN2C(C(O)c3cc(OC)c(OC)c(OC)c3)C=CC3C(=O)N(C)C(=O)C32)cc(OC)c1OC (centres undefined) , composite z-score: 1.34

---

protocolText: blockers of DNA damage checkpoint Chk1 activation – imaging, HeLa, hydroxyurea, phospho-Chk1 nuclear intensity, primary screen (AID 1187); note: test concentration not given here
experimentalContext: hydroxyurea-induced phospho-Chk1 immunofluorescence imaging, higher = more signal
z-score vs 0.2: at or above is satisfied, below is not satisfied.

Use the examples below as a reference point.
O=C1N(CCS(=O)(=O)c2ccccc2)c2ccccc2[C@H]2OC(c3ccc(OCCCO)cc3)=N[C@@]12Cc1ccccc1 ... not satisfied
Cc1ccc(S[C@]2(C(=O)NC(C)C)CC(=O)N(Cc3cc(C(F)(F)F)cc(C(F)(F)F)c3)[C@@H]2c2ccc(CO)cc2)cc1 ... not satisfied
CCCCC(CC)C(O)C1C=CC2C(=O)N(C)C(=O)C2N1Nc1ccccc1 (stereo not drawn) ... not satisfied
COc1cc(OC)c(C(O)C2C=CC3C(=O)N(Cc4ccccc4)C(=O)C3N2n2cnnc2)cc1Br (stereo not drawn) ... satisfied
CCC#CCN(Cc1ccccc1Br)[C@H](/C=C/C1CC1)[C@@H](O)Cc1ccccc1 ... not satisfied
CC1CC/C=C\[C@H]2OC34C=CCN(c5ccc6ccccc6c5)C(=O)[C@H]3N(CCCO)C(=O)[C@@H]4C2C(=O)O1 (stereo partly drawn) ... not satisfied
CN(C)C(=O)[C@@]1(Cc2ccccc2CN=[N+]=[N-])N=C(c2ccc(OCCCO)cc2)O[C@H]1c1ccccc1N=[N+]=[N-] ... not satisfied

Query :: Is z-score at least 0.2? Consider CC(CO)N1C(=O)[C@]2(C)C3C(=O)OCCC/C=C\[C@H]3OC23C=CCN(c2ccc(Cl)cc2)C(=O)[C@@H]13 (stereo partly drawn)
Result :: satisfied

---

Below: a set of entries, each annotated with reported composite z-score.
system: Epidermal growth factor receptor (Homo sapiens) (UniProt P00533)
Sequence (P00533 whole entry, looked up): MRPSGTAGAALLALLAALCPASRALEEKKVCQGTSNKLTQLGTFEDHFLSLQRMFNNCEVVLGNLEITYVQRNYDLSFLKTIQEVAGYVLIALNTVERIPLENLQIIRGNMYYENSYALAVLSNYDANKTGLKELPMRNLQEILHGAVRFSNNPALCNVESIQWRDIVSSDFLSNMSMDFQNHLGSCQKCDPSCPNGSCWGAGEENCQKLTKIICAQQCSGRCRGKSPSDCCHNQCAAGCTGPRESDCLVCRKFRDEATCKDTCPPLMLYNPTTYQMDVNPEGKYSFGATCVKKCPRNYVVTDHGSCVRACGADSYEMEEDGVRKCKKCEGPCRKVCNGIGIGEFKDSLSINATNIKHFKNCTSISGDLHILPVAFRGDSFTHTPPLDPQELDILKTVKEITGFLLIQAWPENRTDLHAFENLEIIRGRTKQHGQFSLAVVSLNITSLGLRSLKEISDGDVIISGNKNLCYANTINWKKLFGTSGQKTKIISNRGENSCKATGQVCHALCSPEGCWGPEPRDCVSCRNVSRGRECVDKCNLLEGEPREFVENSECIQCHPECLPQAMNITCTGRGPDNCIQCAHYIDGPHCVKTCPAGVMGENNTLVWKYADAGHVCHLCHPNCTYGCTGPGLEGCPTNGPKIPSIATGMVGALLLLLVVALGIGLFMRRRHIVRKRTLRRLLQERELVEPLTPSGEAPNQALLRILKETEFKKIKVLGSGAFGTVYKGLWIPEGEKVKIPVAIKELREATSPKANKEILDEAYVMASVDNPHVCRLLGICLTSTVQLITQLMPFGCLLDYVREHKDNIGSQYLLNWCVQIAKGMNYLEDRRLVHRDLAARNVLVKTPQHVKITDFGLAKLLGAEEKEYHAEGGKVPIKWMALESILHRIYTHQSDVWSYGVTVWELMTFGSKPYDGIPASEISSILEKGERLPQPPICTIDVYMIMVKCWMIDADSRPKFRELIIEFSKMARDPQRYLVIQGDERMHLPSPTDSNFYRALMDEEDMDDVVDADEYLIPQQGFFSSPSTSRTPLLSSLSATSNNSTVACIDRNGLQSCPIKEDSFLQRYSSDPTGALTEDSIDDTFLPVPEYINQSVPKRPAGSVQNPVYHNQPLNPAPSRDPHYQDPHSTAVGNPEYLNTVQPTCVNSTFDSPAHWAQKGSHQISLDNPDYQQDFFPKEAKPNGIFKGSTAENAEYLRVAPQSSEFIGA
protocolText: compounds binding epidermal growth factor receptor – biochemical, small-molecule microarray, 635 nm fluorescence, primary screen (AID 1104);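 note: score merges 667 nm emission intensity with spot signal to noise over triplicate slides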
experimentalContext: EGFR binding, higher = more signal

COCCOC(=O)N1C(=O)[C@@]2(c3ccccc31)[C@H](C(=O)NC[C@H](O)c1ccccc1)[C@H]1C(=O)O[C@H](c3ccccc3)[C@H](c3ccccc3)N1[C@@H]2c1ccc(O)cc1 ... 1.01
CS(=O)(=O)CCOC(=O)C1=CC(c2ccc(CO)cc2)=CC(C2CC2)N(Cc2sc3ccccc3c2Cl)C=C1C(=O)OCCS(C)(=O)=O (stereo not drawn) ... 0.645

Kindly consider the entry below.
The reported value for `COc1ccc([Si](C)(C)[C@@H]2[C@@H](CCO)O[C@]3(C(=O)N(Cc4ccccc4)c4ccc(N5C(=O)c6cccc7cccc5c67)cc43)[C@H]2C)cc1` in terms of composite z-score is -0.0299
